Hey, just so you know, these numbers are from patent US20140135474A1.

Target entity: T1, HMGB1 (UniProt P09429 1-215, limits assumed)
T1 construct: also called biotinylated HMGB1
T1 sequence (looked up): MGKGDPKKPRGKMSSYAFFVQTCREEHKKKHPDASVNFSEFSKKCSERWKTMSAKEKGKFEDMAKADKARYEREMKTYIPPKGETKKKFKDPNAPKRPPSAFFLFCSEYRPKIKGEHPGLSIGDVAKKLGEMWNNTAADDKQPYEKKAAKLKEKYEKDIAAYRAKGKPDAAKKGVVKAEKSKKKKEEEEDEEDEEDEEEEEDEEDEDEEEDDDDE
Assay details: Octet BLI
Answer each item with its documented pKd.
One number for each entry, as −log10 of the molar value.

# example entries with known answers
Binder	pKd
R2F8 anti-HMGB1 (designed binder, 14FN3 variant; also called R2F8 HMGB1 FN3) NVSPPRRARVTDATETTITIRWARSASEIARFQVDAVPANGQTPIQRTIKRSANIYTITGLQPGTDYKIYLYTLNDNARSSPVVIDAST	7.45
R2E6 anti-HMGB1 (designed binder, 14FN3 variant; on phage in phage ELISA, soluble 6xHis-tagged in Octet) NVSPPRRARVTDATETTITIRWGVAQSQVARFQVDAVPANGQTPIQRTIKRSVHTYTITGLQPGTDYKIYLYTLNDNARSSPVVIDAST	6.72
R2D4 anti-HMGB1 (designed binder, 14FN3 variant; on phage in phage ELISA, soluble 6xHis-tagged in Octet) NVSPPRRARVTDATETTITISWGVAESEVTRFQVDAVPANGQTPIQRTIKRSKHAYTITGLQPGTDYKIYLYTLNDNARSSPVVIDAST	6.80

API: the following record is the query input.
Form: binder = P1E8 anti-HMGB1 (designed binder, 14FN3 variant; on phage in phage ELISA, soluble 6xHis-tagged in Octet) NVSPPRRARVTDATETTITISWRAAESAIARFQVDAVPANGQTPIQRTIKRTKHTYTITGLQPGTDYKIYLYTLNDNARSSPVVIDAST ; pKd = 6.72
